reported_conditions: in ethyl acetate, 303.15 K
parameter: solubility (mole fraction)
Please give the numeric answer without any surrounding text.

input: Recorded solubility (mole fraction) for O=C(O)c1ccc(O)c(O)c1 , please?
output: 0.00906

====

reported_conditions: in ethanol, 298.15 K
parameter: solubility (mole fraction)
Please give the numeric answer without any surrounding text.

input: Recorded solubility (mole fraction) for O=C(O)c1ccc(O)c(O)c1 , please?
output: 0.041

====

reported_conditions: in ethyl acetate, 318.15 K
parameter: solubility (mole fraction)
Please give the numeric answer without any surrounding text.

input: Recorded solubility (mole fraction) for O=C(O)c1ccc(O)c(O)c1 , please?
output: 0.0233

====

reported_conditions: in methanol, 308.15 K
parameter: solubility (mole fraction)
Please give the numeric answer without any surrounding text.

input: Recorded solubility (mole fraction) for O=C(O)c1ccc(O)c(O)c1 , please?
output: 0.093
